- Assay comment: First PK study: single oral dose, two formulations
- Assay type: in vivo, female Swiss Albino mice
- Settings: female, Swiss Albino, mouse, plasma, po, 5 mg/kg, single oral 5 mg/kg, Formulation 1, female mice; read-out: Apparent T1/2 (converted)
Readout kind: half-life (h)
Could you give me the number in h? Just the number is fine.

q: Which measured half-life value corresponds to COc1cc(N2CCNCC2)ccc1Nc1ncc2c(n1)-n1ccc(C(=O)Nc3c(C)cccc3C)c1CC2 [compound of formula (I)] ?
a: 3.27

---

- Assay comment: Second PK study: daily oral dose for 5 days, two formulations
- Type: in vivo, female Swiss Albino mice
- Settings: female, Swiss Albino, mouse, plasma, po, 5 mg/kg, day 5, daily oral 5 mg/kg, Formulation 2, female mice
Readout kind: AUC(0-inf) (ng·h/mL)
Your answer is read as ng·h/mL, so omit the unit and give the number.

q: Look up AUC(0-inf) for this molecule: COc1cc(N2CCNCC2)ccc1Nc1ncc2c(n1)-n1ccc(C(=O)Nc3c(C)cccc3C)c1CC2
a: 579
